System: COLO 205 colon
assay method text: NCI-60 one-dose screen, 48 h (100 = growth as untreated, 0 = no growth, -100 = all killed)
details: 10 µM unless noted
Description: Cells are grown in 96 well plates and exposed to the test compound for 48 hours. Compounds are tested at a single concentration, which is 10^-5 M for most compounds. The reported endpoint is percent growth (GI% or GIPRCNT), where numbers from 0 - 100% represent growth inhibition, and numbers from -100% - 0 represent cell death. For example, a value of 40 represents 60% growth inhibition. A value of 0 means no net growth occurred over the course of the experiment. […]
About 83,000 compounds went through this panel and 20% of them were active in at least one assay; those are over-represented in the sample as a whole.
Parameter threshold = 90%. Response is t when growth meets or exceeds it, else f.

Exercise: API: above_or_equal(metric=growth, cutoff=90%) for item O=C1[C@@H]2Cc3c([nH]c4ccccc34)[C@H](c3c(Cl)cccc3Cl)N2C(=O)CN1C1CCN(Cc2ccccc2)CC1
Solution: f

Exercise: API: above_or_equal(metric=growth, cutoff=90%) for item C/C=C/C=C1\C[C@H]2CO[C@H](O2)C1=O
Solution: t

Exercise: API: above_or_equal(metric=growth, cutoff=90%) for item O=C(COc1ccc(C2SCC(=O)N2c2ccc(F)cc2)cc1)c1ccccc1 (stereo not drawn)
Solution: t

Exercise: API: above_or_equal(metric=growth, cutoff=90%) for item Cc1[nH]nc2ccc(-c3nc4cnc(N5CCN(C)CC5)cn4c3Nc3ccc(F)cc3Br)cc12
Solution: f

Exercise: API: above_or_equal(metric=growth, cutoff=90%) for item COc1cc2c3c(n(CCCN4CCCCC4)c(=O)c2cc1OC)-c1cc2c(cc1C3=O)OCO2
Solution: f

Exercise: API: above_or_equal(metric=growth, cutoff=90%) for item COc1ccc(NC(=O)Cn2cc(CN3C(=O)c4ccc([N+](=O)[O-])cc4C3=O)nn2)cc1
Solution: t

Exercise: API: above_or_equal(metric=growth, cutoff=90%) for item COc1cc(NC2=C(Cl)C(=O)c3nc(C)ccc3C2=O)cc(OC)c1
Solution: f

Exercise: API: above_or_equal(metric=growth, cutoff=90%) for item COc1ccc([C@H]2[C@H](O)C(=O)N2c2cc(OC)c(OC)c(OC)c2)cc1O
Solution: f

Exercise: API: above_or_equal(metric=growth, cutoff=90%) for item CC(C)C[C@H]1C(=O)O[C@H](C(C)C)C(=O)N(C)[C@@H](C(C)C)C(=O)O[C@H](C(C)C)C(=O)N(C)[C@@H](C(C)C)C(=O)O[C@H](C(C)C)C(=O)N1C
Solution: f

Exercise: API: above_or_equal(metric=growth, cutoff=90%) for item CC(C)N=C(N/C(N)=N/c1nc2ccccc2s1)NC(C)C
Solution: f

Exercise: API: above_or_equal(metric=growth, cutoff=90%) for item CCc1ccc(NC(=O)N[C@@H](Cc2cccc(F)c2)C(=O)N[C@@H]2C(=O)N3CCC[C@H]3C(=O)N3CCCC[C@H]3C(=O)N[C@@H](CO)C(=O)N3C[C@H](C)C[C@H]3C(=O)O[C@H]2C)c(F)c1
Solution: f

Exercise: API: above_or_equal(metric=growth, cutoff=90%) for item N#Cc1c(NC(=O)c2ccccc2C(F)(F)F)sc2c1CCC(=O)C2
Solution: f

====

System: U251 CNS
assay method text: NCI-60 one-dose screen, 48 h
details: 10 µM unless noted
This is part of a sample that, as a whole, favours compounds with a hit. Of some 83,000 tested, about 20% had one in any assay. Activity calls are given as the source filed them. Rule for the calls: active = growth percent below 10; inactive = the rest.
A correct response names exactly one class from active, inactive

Exercise: Dear all, I need the recorded test outcome for Oc1ccc(-c2nnc(SCc3ccc(O)c4ncccc34)n2-c2ccccc2)cc1 , thank you.
Solution: active

Exercise: Dear all, I need the recorded test outcome for Cc1[nH]nc2ccc(-c3nc4cnc(N5CCN(C)CC5)cn4c3Nc3ccc(F)cc3Br)cc12 , thank you.
Solution: inactive

Exercise: Dear all, I need the recorded test outcome for NS(=O)(=O)Oc1ccc2nc(Nc3ccc(F)c(F)c3)ccc2c1 , thank you.
Solution: inactive

Exercise: Dear all, I need the recorded test outcome for Oc1ccc(CSc2nnc(-c3cnccn3)o2)c2cccnc12 , thank you.
Solution: inactive

Exercise: Dear all, I need the recorded test outcome for COc1ccc(-c2nc3cc(Cl)c(Cl)cc3n2CC(=O)N=Nc2c(O)[nH]c3ccc(Cl)cc23)cc1 , thank you.
Solution: inactive

Exercise: Dear all, I need the recorded test outcome for O=C(NNc1nc2cc(F)c(F)cc2n2cccc12)c1ccncn1 , thank you.
Solution: inactive

Exercise: Dear all, I need the recorded test outcome for COc1ccc(-c2nc(SCCC(C)C)nc(N/N=C\c3ccc(O)cc3)c2C#N)cc1 , thank you.
Solution: inactive

Exercise: Dear all, I need the recorded test outcome for O=C1[C@H]2Cc3c([nH]c4ccccc34)[C@H](c3ccc(Cl)cc3)N2C(=O)CN1C1CCN(Cc2c(Cl)cccc2Cl)CC1 , thank you.
Solution: inactive

====

Test system: MCF7 breast
assay method text: NCI-60 one-dose screen, 48 h
details: 10 µM unless noted
Compounds without any hit were thinned out: in the full panel of roughly 83,000, 20% have a hit. Activity calls are given as the source filed them. The calls were made as follows: active = growth percent below 10; inactive = the rest.
A correct response names exactly one class from class 1 = active, class 0 = inactive

Exercise: Dear all, I need the recorded test outcome for C/C(=C(/c1ccc(O)cc1)c1ccc(OCCN(C)C)cc1)c1ccc(Cl)cc1 , thank you.
Solution: class 0

Exercise: Dear all, I need the recorded test outcome for CCCCCCNC(=O)Oc1ccc(/C(=C(/C)c2ccc(Cl)cc2)c2ccc(OCCN3CCCC3)cc2)cc1 , thank you.
Solution: class 1

Exercise: Dear all, I need the recorded test outcome for COc1cc(C2=NN(C(C)=O)C(c3ccc(N4CCOCC4)cc3)C2)cc(OC)c1OC (stereo unspecified) , thank you.
Solution: class 0

Exercise: Dear all, I need the recorded test outcome for COc1cnc2c(c1)C(=O)c1c-2n(CCCn2ccnc2)c(=O)c2cc(OC)c(OC)cc12 , thank you.
Solution: class 1

Exercise: Dear all, I need the recorded test outcome for CC1(COc2ccc3ncc(C#Cc4cncc(C(=O)Nc5cc(C(C)(C)C)on5)c4)n3n2)COC1 , thank you.
Solution: class 0

Exercise: Dear all, I need the recorded test outcome for Nc1c(C(=O)c2ccccc2)sc2nc(-c3cnccn3)cc(-c3cccs3)c12 , thank you.
Solution: class 0

Exercise: Dear all, I need the recorded test outcome for IP(CCCCCCCCCCSc1n(Cc2ccc3ccccc3c2)c(-c2ccccc2)c(-c2ccccc2)[n+]1Cc1ccc2ccccc2c1)(c1ccccc1)(c1ccccc1)c1ccccc1 , thank you.
Solution: class 1

Exercise: Dear all, I need the recorded test outcome for CCC(CC)N1C(=O)/C(=c2\sc3n(c2=O)C2C(NN=3)N(CC)C(=O)N2CC)c2ccccc21 (stereo unspecified) , thank you.
Solution: class 0

Exercise: Dear all, I need the recorded test outcome for CC(=O)C1=NN(c2ccc(Cl)cc2)C(=O)CN1C , thank you.
Solution: class 0

Exercise: Dear all, I need the recorded test outcome for Cn1cc(-c2nn3cc(-c4cccnc4)nc3s2)c2cc(F)ccc21 , thank you.
Solution: class 0

Exercise: Dear all, I need the recorded test outcome for Cn1c2ccccc2c2c3c(c4c5ccc(Br)cc5oc4c21)C(=O)N(O)C3=O , thank you.
Solution: class 0

Exercise: Dear all, I need the recorded test outcome for CCCC(=O)NC(c1cccnc1)c1ccc2c(C)ccnc2c1O (stereo unspecified) , thank you.
Solution: class 1

Exercise: Dear all, I need the recorded test outcome for Cc1ccc(-c2nnc3sc(C4=Cc5ccccc5OC=C4)nn23)cc1 , thank you.
Solution: class 0

Exercise: Dear all, I need the recorded test outcome for Cn1nc(Nc2ccccc2)c(C(=O)NN)c1N , thank you.
Solution: class 0

Exercise: Dear all, I need the recorded test outcome for COc1ccc(-c2ccc3c4c(cccc24)C(=O)N(N2C(=O)c4cccc5cccc(c45)C2=O)C3=O)cc1 , thank you.
Solution: class 0

Exercise: Dear all, I need the recorded test outcome for CNC(=O)c1cc(Oc2ccc3nc(NC(=O)c4ccc(CN5CCN(C)CC5)c(C(F)(F)F)c4)sc3c2)ccn1 , thank you.
Solution: class 0

====

Would you kindly list growth for each of these compounds?
Tested on: U251 CNS
assay method text: NCI-60 one-dose screen, 48 h (100 = growth as untreated, 0 = no growth, -100 = all killed)
details: 10 µM unless noted
Compounds without any hit were thinned out: in the full panel of roughly 83,000, 20% have a hit. Calls of active or inactive are those of the source. Rule for the calls: active = growth percent below 10; inactive = the rest.

Exercise: Record request: growth value, item O=C(Nc1ccc(-c2nc(-c3cccc(O)c3)c(-c3ccnc(Br)c3)[nH]2)cc1)c1ccccc1
Solution: 20.8% (inactive)

Exercise: Record request: growth value, item CC[C@@](C)(NC(=O)C(C)(C)NC(=O)[C@@H](NC(=O)[C@@H]1CCCN1C(=O)C(C)(C)NC(=O)[C@H](CC(C)C)NC(=O)CNC(=O)C(C)(C)NC(=O)[C@@H](NC(=O)C(C)(C)NC(=O)[C@H](CCC(N)=O)NC(=O)[C@H](C)NC(=O)C(C)(C)NC(=O)[C@H](C)NC(=O)C(C)(C)NC(=O)[C@@H]1CCCN1C(=O)C(C)(C)NC(C)=O)C(C)C)C(C)C)C(=O)N[C@@H](CCC(N)=O)C(=O)N[C@@H](CCC(N)=O)C(=O)N[C@H](CO)Cc1ccccc1
Solution: 33.1% [4.25 µM] (inactive)

Exercise: Record request: growth value, item C#C[C@]1(O)CC[C@H]2[C@@H]3CC=C4c5sc(C6CC6)nc5CC[C@]4(C)[C@H]3CC[C@@]21C
Solution: 66.3% (inactive)

Origin of measurements: PubChem BioAssay (NCI)
